Kd values for the compounds below.
Target under test: Influenza A virus M2 proton channel (A/TW/4845/1999 H1N1)
Measurement protocol: M2 proton channel binding, NMR based, influenza A virus H1N1 strain (AID 1549)
Run parameters: NMR binding screen, M2 protein
Calls of active or inactive are those of the source. How the calls were made is not given here.

Examples with their reported Kd follow.
| Compound | Kd |
| --- | --- |
| COc1cccc(O)c1O | > 4 mM (inactive) |
| CN1CCN(c2ncnc3nc[nH]c23)CC1 | > 4 mM (inactive) |
| CC(=O)N1C(=S)NC(=O)/C1=C\c1cccnc1 | > 4 mM (inactive) |
| O=c1c2ccccc2ncn1C1CCCCC1 | > 4 mM (inactive) |
| Cc1cc(=O)cc(C)n1NC(N)=S | > 4 mM (inactive) |

So, Nc1ccc2c(c1)CCCC2=O ? Its Kd was > 4 mM (inactive)

So, COC(=O)c1ccc(Cl)c(NC(C)=O)c1 ? Its Kd was > 4 mM (inactive)

====

Kd values for the compounds below.
Target under test: Influenza A virus M2 proton channel (A/TW/4845/1999 H1N1)
Measurement protocol: M2 proton channel binding, NMR based, influenza A virus H1N1 strain (AID 1549)
Run parameters: NMR binding screen, M2 protein
Calls of active or inactive are those of the source. No rule for the calls is given here.

| Compound | Target under test | Measured |
| --- | --- | --- |
| CCOc1ccc(C(=O)c2ccc(O)c(O)c2O)cc1 | Influenza A virus M2 proton channel (A/TW/4845/1999 H1N1) | > 4 mM (inactive) |
| CN(c1ccc(C(=O)N2CCCCC2)cc1)S(C)(=O)=O | Influenza A virus M2 proton channel (A/TW/4845/1999 H1N1) | > 4 mM (inactive) |
| COc1cccc(Oc2ccc(N)cn2)c1 | Influenza A virus M2 proton channel (A/TW/4845/1999 H1N1) | > 4 mM (inactive) |
| CO[C@H]1[C@@H](O)[C@@H](C)O[C@H](O[C@H]2CCC3(C)C4CCC5(C)[C@@H](C6=CC(=O)OC6)CC[C@]5(O)[C@@H]4CC[C@]3(O)C2)[C@@H]1O (stereo partly specified) | Influenza A virus M2 proton channel (A/TW/4845/1999 H1N1) | > 4 mM (inactive) |
| Cc1cc(C(F)(F)F)nn1CC(N)=O | Influenza A virus M2 proton channel (A/TW/4845/1999 H1N1) | > 4 mM (inactive) |

So, C/C=C/C=N/NC(=O)c1ccc(=O)n(C)c1 ? Its Kd was > 4 mM (inactive)

So, C=C1CCC2C(CC2(C)C)C(=O)CCC1O (stereo unspecified) ? Its Kd was > 4 mM (inactive)

So, CC(C)=CCOc1c2occc2cc2ccc(=O)oc12 ? Its Kd was > 4 mM (inactive)

So, CC(=O)Nc1ccc(NC(C)=O)c(C(F)(F)F)c1 ? Its Kd was > 4 mM (inactive)

So, COc1ccc2nc(N)sc2c1 ? Its Kd was > 4 mM (inactive)

So, Cc1cc(C(=O)N2CCN(c3ncccn3)CC2)c(C)o1 ? Its Kd was > 4 mM (inactive)

So, COc1ccccc1NC(=O)C1CCCCC1 ? Its Kd was > 4 mM (inactive)

So, O=C(O)CSc1nc2ccccc2c(=O)[nH]1 ? Its Kd was > 4 mM (inactive)

So, CC(=O)OC1CCC23C(=O)OC45CCC(C6=CC(=O)OC6)C4(C)CCC2C5CCC3(O)C1 (stereo unspecified) ? Its Kd was > 4 mM (inactive)

So, O=S1(=O)C=CC(N2CCCCC2)C1 (stereo unspecified) ? Its Kd was > 4 mM (inactive)

So, O=C(Nc1ccon1)c1ccccc1Cl ? Its Kd was > 4 mM (inactive)

So, Cc1ccn(S(=O)(=O)c2ccc(C(C)(C)C)cc2)n1 ? Its Kd was > 4 mM (inactive)

So, CC(=O)OC(C)(C)[C@@H]1Cc2cc3ccc(=O)oc3cc2O1 ? Its Kd was > 4 mM (inactive)

So, Cn1c(=O)[nH]c(=O)c2c1ncn2CCN1CCCCC1 ? Its Kd was > 4 mM (inactive)

So, O=C1CC[C@]23/C=C/C(=O)NCCCCNCCCNC(=O)/C=C/c4ccc(c2c4)O[C@@H]3C1 ? Its Kd was > 4 mM (inactive)

So, COc1cccc(N2CCNCC2)c1 ? Its Kd was > 4 mM (inactive)

So, CS(=O)(=O)c1cccc(C(=O)Nc2nccs2)c1 ? Its Kd was > 4 mM (inactive)

====

Target under test: Influenza A virus M2 proton channel (A/TW/4845/1999 H1N1)
Measurement protocol: M2 proton channel binding, NMR based, influenza A virus H1N1 strain (AID 1549)
Run parameters: NMR binding screen, M2 protein
Calls of active or inactive are those of the source. The rule behind the calls is not given here.
Kd values for the compounds below.

| Compound | Kd |
| --- | --- |
| COc1cc(/C=C/C(=O)/C=C(O)/C=C/c2ccc(O)c(OC)c2)ccc1O | > 4 mM (inactive) |
| Cc1ccc(NC(=O)C2CCCNC2=O)nc1 (configuration not stated) | > 4 mM (inactive) |
| CC(=O)Nc1ccc(C(=O)NC2=NCCS2)cc1 | > 4 mM (inactive) |
| O=c1c(-c2ccco2)[n+]([O-])c2ccccc2n1O | > 4 mM (inactive) |

So, CCc1ccccc1NC(=O)c1cnccn1 ? Its Kd was > 4 mM (inactive)

So, CSc1ccccc1NC(=O)c1ccc(C)o1 ? Its Kd was > 4 mM (inactive)

So, Cn1c(SCC(N)=O)nnc1-c1c[nH]c2ccccc12 ? Its Kd was > 4 mM (inactive)

====

Target under test: Influenza A virus M2 proton channel (A/TW/4845/1999 H1N1)
Measurement protocol: M2 proton channel binding, NMR based, influenza A virus H1N1 strain (AID 1549)
Run parameters: NMR binding screen, M2 protein
Calls of active or inactive are those of the source. How the calls were made is not given here.
Kd values for the compounds below.

| Compound | Quantity | Measured |
| --- | --- | --- |
| O=C(NCc1ccccc1Cl)c1cnn2cccnc12 | Kd | > 4 mM (inactive) |

So, CC(=O)Nc1cccc(-c2nnc(-c3ccccc3)o2)c1 ? Its Kd was > 4 mM (inactive)

So, CN1CCC(NC(=O)c2c(F)cccc2Cl)CC1 ? Its Kd was > 4 mM (inactive)

So, CC(C)c1ccc2c(c1O)CC[C@H]1C3=C(CC[C@]21C)C(=O)OC3 ? Its Kd was > 4 mM (inactive)

So, CCCCCCCCCCCCCCC(C(=O)OC)C(O)(CC(=O)OC)C(=O)OC (centres undefined) ? Its Kd was > 4 mM (inactive)

So, Cc1cc2c(N)cccc2nn1 ? Its Kd was > 4 mM (inactive)

====

Target under test: Influenza A virus M2 proton channel (A/TW/4845/1999 H1N1)
Measurement protocol: M2 proton channel binding, NMR based, influenza A virus H1N1 strain (AID 1549)
Run parameters: NMR binding screen, M2 protein
The source made the active and inactive calls. How the calls were made is not given here.
Quantity: Kd

Examples with their reported Kd follow.
| Compound | Kd |
| --- | --- |
| CC(=O)OC[C@H]1O[C@@H](Oc2cc(OC(C)=O)c3c(=O)cc(-c4ccc(OC(C)=O)cc4)oc3c2)[C@H](OC(C)=O)[C@@H](OC(C)=O)[C@@H]1OC(C)=O | > 4 mM (inactive) |
| COC(=O)c1cn(C(=O)OC)c2ccccc12 | > 4 mM (inactive) |
| c1ccc2[nH]c(NCCN3CCOCC3)nc2c1 | > 4 mM (inactive) |
| Cc1nc2ccccc2c(=O)n1/N=C/c1ccncc1 | > 4 mM (inactive) |
| CC(=O)O[C@H]1CCC2(C)C3=C(CCC2C1(C)C)[C@]1(C)CCC(C(C)CCC=C(C)C)[C@@]1(C)CC3 (some centres not stated) | > 4 mM (inactive) |
| O=C1C2CCCCC2C(=O)N1c1nccs1 (configuration not stated) | > 4 mM (inactive) |
| Cc1ccc(C)n1NC(=O)c1cccs1 | > 4 mM (inactive) |
| NC(=O)CSc1nnc2ccc(-c3ccccn3)nn12 | > 4 mM (inactive) |
| CC1(C)CC2(C)N(N)C(=O)CN2C(=S)N1 (configuration not stated) | > 4 mM (inactive) |
| CC(=O)O[C@H]1CC[C@@]2(C)C(C[C@@H](OC(C)=O)[C@@]3(C)C4=CC(=O)O[C@@H](c5ccoc5)[C@]4(C)CCC23)C1(C)C (some centres not stated) | > 4 mM (inactive) |

So, CC[C@@]1(O)C(=O)OCc2c1cc1n(c2=O)Cc2cc3ccccc3nc2-1 ? Its Kd was > 4 mM (inactive)

So, CC[C@@]1(O)C[C@H](O[C@H]2C[C@H](N(C)C)[C@H](O)[C@H](C)O2)c2c(cc3c(c2O)C(=O)c2c(O)cccc2C3=O)[C@H]1C(=O)OC ? Its Kd was > 4 mM (inactive)

So, Cc1nn2c(nc1=O)SCC2(O)c1ccccc1 (configuration not stated) ? Its Kd was > 4 mM (inactive)

So, COc1ccc(CN2CCNC(=O)C2CC(=O)O)cc1C (configuration not stated) ? Its Kd was > 4 mM (inactive)

So, Oc1ccc2c(c1)OCC1(O)Cc3cc(O)c(O)cc3C21 (configuration not stated) ? Its Kd was > 4 mM (inactive)

So, Oc1ccccc1N=Cc1cccnc1 ? Its Kd was > 4 mM (inactive)

So, O=C(Nc1ccc2c(c1)OCO2)c1cnn2cccnc12 ? Its Kd was > 4 mM (inactive)

So, Cc1ccc(N2CCN(C(=O)c3ccccc3)CC2)c(C)c1 ? Its Kd was > 4 mM (inactive)

So, Cc1ccc2c(c1)=C(c1sc(N)nc1O)C(=O)N=2 ? Its Kd was > 4 mM (inactive)

So, O=C1CN(c2ccccc2)CC(=O)N1 ? Its Kd was > 4 mM (inactive)

So, CC(C)c1ccc2c(c1)CCC1[C@](C)(CN)CCC[C@]21C (some centres not stated) ? Its Kd was > 4 mM (inactive)

So, CCOC(=O)CNc1ncnc2c1nnn2CC ? Its Kd was > 4 mM (inactive)
